Provenance of the data: ChEMBL document CHEMBL1828580

- assay system: Translocator protein (Rattus norvegicus)
- Sequence (P16257 whole entry, looked up): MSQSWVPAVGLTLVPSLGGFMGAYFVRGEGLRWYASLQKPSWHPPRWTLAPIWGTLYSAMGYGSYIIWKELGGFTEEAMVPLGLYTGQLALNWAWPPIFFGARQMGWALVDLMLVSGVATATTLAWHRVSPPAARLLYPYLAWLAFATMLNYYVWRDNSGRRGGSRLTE
reported metric: log10(Ki) (log10 of the value in nM)

[
  {
    "structure smiles string": "CCCCCCN(CCCCCC)C(=O)Cc1coc(-c2ccc(Cl)cc2)n1",
    "log10(Ki)": 2.85
  },
  {
    "structure smiles string": "CCCCN(CCCC)C(=O)Cc1coc(-c2ccc(F)cc2)n1",
    "log10(Ki)": 1.94
  },
  {
    "structure smiles string": "CCCN(CCC)C(=O)Cc1coc(-c2ccc(F)cc2)n1",
    "log10(Ki)": 3.21
  },
  {
    "structure smiles string": "CCCCCCN(CCCCCC)C(=O)c1cc(-c2ccccc2)no1",
    "log10(Ki)": 3.85
  },
  {
    "structure smiles string": "CCCCCN(CCCCC)C(=O)Cc1cc(-c2ccccc2)no1",
    "log10(Ki)": 2.41
  },
  {
    "structure smiles string": "CCCCN(CCCC)C(=O)Cc1nc(-c2ccccc2)no1",
    "log10(Ki)": 2.69
  },
  {
    "structure smiles string": "CCCCN(CCCC)C(=O)c1cc(-c2ccccc2)on1",
    "log10(Ki)": 2.79
  },
  {
    "structure smiles string": "CCCCCN(CCCCC)C(=O)c1cc(-c2ccccc2)on1",
    "log10(Ki)": 2.58
  },
  {
    "structure smiles string": "CCCCN(CCCC)C(=O)c1coc(-c2ccccc2)n1",
    "log10(Ki)": 3.54
  },
  {
    "structure smiles string": "CCCCCN(CCCCC)C(=O)Cc1nc(-c2ccccc2)no1",
    "log10(Ki)": 2.12
  },
  {
    "structure smiles string": "CCCCCCN(CCCCCC)C(=O)c1cc(-c2ccc(C)cc2)no1",
    "log10(Ki)": 3.43
  },
  {
    "structure smiles string": "CCCCCN(CCCCC)C(=O)Cc1coc(-c2ccccc2)n1",
    "log10(Ki)": 1.51
  },
  {
    "structure smiles string": "CCCCCCN(CCCCCC)C(=O)Cc1nc(-c2ccc(Cl)cc2)no1",
    "log10(Ki)": 3.51
  }
]
